Listed next: entries and their corresponding EC50.
Tested system: GLP-1R (Homo sapiens, UniProt P43220)
Sequence (P43220 24-463): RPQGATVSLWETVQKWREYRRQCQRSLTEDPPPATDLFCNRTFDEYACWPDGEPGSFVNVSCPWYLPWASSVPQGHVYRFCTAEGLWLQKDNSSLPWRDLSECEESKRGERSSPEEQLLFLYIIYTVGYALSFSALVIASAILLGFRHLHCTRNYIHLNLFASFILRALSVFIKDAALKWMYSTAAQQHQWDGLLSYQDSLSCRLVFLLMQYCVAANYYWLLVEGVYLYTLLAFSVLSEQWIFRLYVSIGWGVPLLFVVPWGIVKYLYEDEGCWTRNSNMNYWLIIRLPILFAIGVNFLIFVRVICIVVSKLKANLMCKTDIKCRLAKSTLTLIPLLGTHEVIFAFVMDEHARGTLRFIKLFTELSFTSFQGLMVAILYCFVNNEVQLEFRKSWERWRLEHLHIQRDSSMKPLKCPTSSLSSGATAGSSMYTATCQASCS
Measurement protocol: GLP-1R agonist cAMP stimulation assay (HTRF cAMP)
Format: cell-based
Test settings: HEK293 cell line expressing GLP-1 target; HTRF cAMP agonist mode, 30 min at RT
Only the number, expressed in nM, is required.

Here's what some known entries look like.
>  <Compound>
COC(=O)[C@@H]1CC(F)(F)CN1C(=O)CNC(=O)c1ccc2c(c1)nc(CN1CCC(c3cccc(OCc4ccc(Cl)cc4F)n3)CC1)n2C[C@@H]1CCO1

>  <Tested system>
GLP-1R (Homo sapiens, UniProt P43220)

>  <Reported property>
EC50

>  <Meas value>
151

$$$$
>  <Compound>
COCCn1c(CN2CCC(c3cccc(OCc4ccc(Cl)cc4F)n3)CC2)nc2cc(C(=O)N[C@@H]3CCc4nc(N)sc4C3)ccc21

>  <Tested system>
GLP-1R (Homo sapiens, UniProt P43220)

>  <Reported property>
EC50

>  <Meas value>
447

$$$$
>  <Compound>
Cc1cc(NC(=O)c2ccc3c(c2)nc(CN2CCC(c4cccc(OCc5ccc(Cl)cc5F)n4)CC2)n3C[C@@H]2CCO2)c(F)c2c(C)n[nH]c12

>  <Tested system>
GLP-1R (Homo sapiens, UniProt P43220)

>  <Reported property>
EC50

>  <Meas value>
4.23

$$$$
>  <Compound>
O=C(CNC(=O)c1ccc2c(c1)nc(CN1CCC(c3cccc(OCc4ccc(Cl)cc4F)n3)CC1)n2C[C@@H]1CCO1)N[C@@H](CO)C(=O)O

>  <Tested system>
GLP-1R (Homo sapiens, UniProt P43220)

>  <Reported property>
EC50

>  <Meas value>
2.47

$$$$
>  <Compound>
COCCn1c(CN2CCC(c3cccc(OCc4ccc(Cl)cc4F)n3)CC2)nc2cc(C(=O)NCc3ccc(O)c(C(=O)O)c3)ccc21

>  <Tested system>
GLP-1R (Homo sapiens, UniProt P43220)

>  <Reported property>
EC50

>  <Meas value>
106

$$$$
>  <Compound>
Cc1n[nH]c2c(C)cc(NC(=O)c3ccc4c(c3)nc(CN3CCC(c5cccc(OCc6ccc(C#N)cc6F)n5)CC3)n4C[C@@H]3CCO3)cc12

>  <Tested system>
GLP-1R (Homo sapiens, UniProt P43220)

>  <Reported property>
EC50

>  <Meas value>
0.15

$$$$
>  <Compound>
Cc1n[nH]c2ccc(C(=O)Nc3ccc4c(c3)nc(CN3CCC(c5cccc(OCc6ccc(Cl)cc6F)n5)CC3)n4CCOC(F)(F)F)cc12

>  <Tested system>
GLP-1R (Homo sapiens, UniProt P43220)

>  <Reported property>
EC50

>  <Meas value>
0.81

$$$$
>  <Compound>
O=C(Nc1ccc2c(c1)nc(CN1CC=C(c3cccc(OCc4ccc(Cl)cc4F)n3)CC1)n2C[C@@H]1CCO1)c1ccc2c(c1)C1(CC1)C(=O)N2

>  <Tested system>
GLP-1R (Homo sapiens, UniProt P43220)

>  <Reported property>
EC50

>  <Meas value>
0.24

$$$$

## Input Form field - read-out: EC50; system: GLP-1R (Homo sapiens, UniProt P43220); submitted item: CC1(c2ccc(Cl)cc2F)Oc2cccc(C3=CCN(Cc4nc5cc(C(=O)Nc6ccc7[nH]nc(C8CC8)c7c6)ccc5n4CC4CCO4)CC3)c2O1 (centres unmarked) [Compound 294]
## Output 1.02

## Input Record Cc1cc(C(=O)Nc2ccc3c(c2)nc(CN2CC=C(c4cccc5c4OC(C)(c4ccc(Cl)cc4F)O5)CC2)n3C[C@@H]2CCO2)cc2c1NC(=O)C21CC1 (some centres unmarked) : what is its EC50 with GLP-1R (Homo sapiens, UniProt P43220)?
## Output 0.21

## Input Which measured EC50 belongs to Cc1cc(NC(=O)c2ccc3c(c2)nc(CN2CCC(c4cccc(OCc5ccc(C#N)cc5F)n4)CC2)n3C[C@@H]2CCO2)cc2cn[nH]c12 , tested on GLP-1R (Homo sapiens, UniProt P43220)?
## Output 0.85
